Tested on: SK-MEL-5 melanoma
PROTOCOL DESCRIPTION: NCI tumour cell line growth inhibition, 48 h
ATTRIBUTE MEASURED: TGI

Given CC1(C)OCN(c2ccc(Cl)cc2)Cn2c1nc1ccccc12 , state its recorded TGI.
5.39 µM

Entry C[Si](C)(C)/C=C/CN1C(=O)CCC1O (centres undefined) please
> 100 µM

Entry COc1cc2c(c(OC)c1OC)C(=O)CC2N (centres undefined) please
> 100 µM

Entry Clc1nc2c(-c3cccs3)ncnc2n1Cc1ccccc1 please
> 100 µM

---

Reported TGI values for the following compounds.
Tested on: NCI-H23 lung
PROTOCOL DESCRIPTION: NCI tumour cell line growth inhibition, 48 h
*1 amine or outer side, *2 acyl side, *3 side chain or, on linkers, in order; H or OH if unused. Where a SMILES comes first, the peptide text is derived from it. [ ]: non-standard residue; d: D form. The star is where a group is joined. X41 = CCC(=O)CC1CC(C)CC(C(=O)[*:2])N1[*:1]; X40 = CCCCCCCCC(C)C(=O)*; Aib = CC(C)(N)C(=O)O; X42 = CC(CN(C)CCO)N*

Please review the following examples before continuing.
Given CN1CCN(c2ccc3[nH]c(C4=C(O)c5nc(CO)n(C)c5C(=O)C4=O)nc3n2)CC1 , state its recorded TGI.
> 100 µM

Entry O=[N+]([O-])c1ccc(Cl)c(C2SCc3nc4ccccc4n32)c1 (stereo not drawn) please
> 100 µM

Entry Nc1cccc(OCc2nc(N)nc(N)c2-c2ccc(Cl)cc2)c1 please
> 100 µM

Next:
Given O=[As](O)(O)c1ccc(Cc2ccc([As](=O)(O)O)cc2)cc1 , state its recorded TGI.
2.26 µM

Entry Oc1c(CN2CCCC2)cc(COCc2ccccc2)c2cccnc12 please
11.6 µM

Entry NC(CSC(c1ccccc1)(c1ccccc1)c1ccc2ccccc2c1)C(=O)O (stereo not drawn) please
16.4 µM

Entry COC(=O)C1=C(C)NC(C)=C([N+](=O)[O-])C1c1cccc(NO)c1 (stereo not drawn) please
> 100 µM

Entry COc1ccc(/C=C2\N=C3SC=C(N)N3C2=O)cc1 please
8.47 µM

Entry CC[C@H](C)[C@H](NC(=O)C12C3C4C1C1C2C3C41NC(C)=O)C(=O)N(C)[C@H](C[C@@H](OC(C)=O)c1nc(C(=O)N[C@@H](Cc2ccccc2)C[C@H](C)C(=O)OC)cs1)C(C)C (stereo partly drawn) please
> 14.3 µM

Entry O=C(/C=C/c1cccc(Cl)c1)c1ccc(Cl)cc1Cl please
19.3 µM

Entry CCC1(OC(C)=O)C(=O)OCc2c1cc1n(c2=O)Cc2cc3ccccc3nc2-1 (stereo not drawn) please
4.6 µM

Entry Cc1ccc(N2C(=O)/C(=C3\Sc4c(nc(C)[nH]c4=O)N3c3ccccc3)SC2=S)cc1 please
56.7 µM

Entry C/C(=N\Nc1ccc([N+](=O)[O-])cc1)C(=O)N(C)Nc1ccccc1 please
> 100 µM

Entry CC(=O)Nc1ccc(-c2nnc(SCC(=O)Nc3ccc(C)cc3)o2)cc1 please
29.6 µM

Entry CCCCCCCCC(C)C(=O)N1CCCC1C(=O)N1C(CC(=O)CC)CC(C)CC1C(=O)NC(C)C(=O)NC(C)(C)C(=O)NC(C)(C)C(=O)NC(C(=O)NC(C)C(=O)NC(C)(C)C(=O)NC(C)(C)C(=O)NC(C)CN(C)CCO)C(C)CC (stereo not drawn) (X40-P[X41]A[Aib][Aib]IA[Aib][Aib]-X42; configuration not given here) please
1.05 µM

Entry Fc1ccc(C(OCCN2CCC3CCC(C2)N3Cc2cc3ccccc3[nH]2)c2ccc(F)cc2)cc1 (stereo not drawn) please
3.05 µM

Entry O=c1cccccc1NCCCCNc1cccccc1=O please
> 100 µM

Entry CCCCCCCCCN1CCC(=O)C(C(=O)OC)C1 (stereo not drawn) please
8.59 µM

Entry Cc1n[nH]c(=O)n1N=C(c1ccccc1)c1ccccc1 please
> 100 µM

Entry CC1(C)OCN(c2ccc(Cl)cc2)Cn2c1nc1ccccc12 please
> 100 µM

Entry COc1ccc2c(c1)CC[C@@H]1C2CC[C@]2(C)C(=O)NC(=O)CC12 (stereo partly drawn) please
> 100 µM

Entry C[Se]C(=O)CC1=C2C=C(F)C=CC2/C(=C\c2ccc(S(C)=O)cc2)C1C (stereo not drawn) please
1.03 µM

Entry COc1ccc(/C=C(\C#N)c2cc3ccccc3n2C)cc1 please
> 100 µM

Entry CC(C)C(N)(C(=O)O)c1ccccc1 (stereo not drawn) please
> 100 µM

Entry COc1ccc(C(=O)C=C2NCCN2)cc1 please
> 100 µM
